Provide the recorded koff for the entries that follow.
Molecular target: T1, soluble recombinant G protein (amino acids 66-292 of the 18537 strain sequence) (RSV strain 18537 (subtype B), UniProt P20896 66-292)
T1 construct: also called G(B); recombinant protein G
T1 sequence: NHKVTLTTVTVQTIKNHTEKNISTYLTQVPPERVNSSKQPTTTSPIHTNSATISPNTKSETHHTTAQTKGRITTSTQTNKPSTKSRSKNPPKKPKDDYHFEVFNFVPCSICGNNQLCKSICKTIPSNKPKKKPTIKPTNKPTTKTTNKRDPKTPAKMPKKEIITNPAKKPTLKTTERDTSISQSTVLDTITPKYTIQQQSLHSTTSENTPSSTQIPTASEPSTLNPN
Assay: SPR (Biacore 3000), Fab over immobilised recombinant antigen;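 note: antigen immobilised on CM5 chip at very low density (about 50 RU), rate constants fitted globally with a 1:1 Langmuir model, Fabs obtained by enzymatic cleavage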
Please respond with the number in s⁻¹ and leave the unit unwritten.

What the record says about Fab fragment of antibody from clone 853 (Fab, V domains shown, also called Fab clone 853; 853 (G)) VH: EVQLVQSGAEVKKPGQSLKISCKTSGYIFTNYWIGWVRQRPGKGLEWMGVIFPADSDARYSPSFQGQVTISADKSIGTAYLQWSSLKASDTAIYYCARPKYYFDSSGQFSEMYYFDFWGQGTLVTVSS VL: EIVLTQSPGTLSLSPGERATLSCRASQSVSSNYLAWYQQKPGQAPRLLIYGASSRAAGMPDRFSGSGSGTDFTLTISRLEPEDFAVYYCQQYGNSPLTFGGGTEVEIKR : koff is 0.0014

What the record says about Fab fragment of antibody from clone 796 (Fab, V domains shown, also called Fab clone 796; 796 (G)) VH: QVQLVESGGGVVQPGRSLRLSCAASGFSFSHFGMHWVRQVPGKGLEWVAIISYDGNNVHYADSVKGRFTISRDNSKNTLFLQMNSLRDDDTGVYYCAKDDVATDLAAYYYFDVWGRGTLVTVSS VL: DIVMTQTPLSLSVTPGQPASISCRSSQSLLRSDGKTFLYWYLQKPGQSPQPLMYEVSSRFSGVPDRFSGSGSGADFTLNISRVETEDVGIYYCMQGLKIRRTFGPGTKVEIKR : koff is 0.000403

What the record says about Fab fragment of antibody from clone 811 (Fab, V domains shown, also called Fab clone 811; 811 (G)) VH: QVQLVQSGAVVETPGASVKVSCKASGYIFGNYYIHWVRQAPGQGLEWMAVINPNGGSTTSAQKFQDRITVTRDTSTTTVYLEVDNLRSEDTATYYCARQRSVTGGFDAWLLIPDASNTWGQGTMVTVSS VL: DIVMTQSPDSLAVSLGERATINCRSSETVLYTSKNQSYLAWYQQKARQPPKLLLYWASTRESGVPARFSGSGSGTDFTLAISSLQAEDVAVYYCQQFFRSPFTFGPGTRLEIKR : koff is 0.000171
